B1: tRNA (parent)
chain: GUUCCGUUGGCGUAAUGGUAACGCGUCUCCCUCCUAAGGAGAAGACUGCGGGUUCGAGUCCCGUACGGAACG

Variants of: B1
Experiment: yeast fitness relative to wild type (ratio to wild type); higher = fitter; tRNA-Arg(CCU), competitive growth, 37 C, YPD
Variants at the floor of the assay were thinned out.
READOUT KIND: yeast fitness

>  <MUTATION NAME>
C4G A14G C27U A42U

>  <READOUT KIND>
yeast fitness

>  <ENDPOINT RESULT>
≤ 0.5

$$$$
>  <MUTATION NAME>
C49A G51A C55A C60A

>  <READOUT KIND>
yeast fitness

>  <ENDPOINT RESULT>
≤ 0.5

$$$$
>  <MUTATION NAME>
A21G U32C C34A C55A A69C

>  <READOUT KIND>
yeast fitness

>  <ENDPOINT RESULT>
≤ 0.5

$$$$
>  <MUTATION NAME>
A14C G52C A57C G63C

>  <READOUT KIND>
yeast fitness

>  <ENDPOINT RESULT>
≤ 0.5

$$$$
>  <MUTATION NAME>
C24G U54G G63A

>  <READOUT KIND>
yeast fitness

>  <ENDPOINT RESULT>
0.553

$$$$
>  <MUTATION NAME>
G12A G25A C60A

>  <READOUT KIND>
yeast fitness

>  <ENDPOINT RESULT>
≤ 0.5

$$$$
>  <MUTATION NAME>
A45C A65G C66U

>  <READOUT KIND>
yeast fitness

>  <ENDPOINT RESULT>
0.679

$$$$
>  <MUTATION NAME>
C11A U19G A36G C49A G68C

>  <READOUT KIND>
yeast fitness

>  <ENDPOINT RESULT>
≤ 0.5

$$$$
>  <MUTATION NAME>
A43U G51C A57C C60G G67A

>  <READOUT KIND>
yeast fitness

>  <ENDPOINT RESULT>
0.663

$$$$
>  <MUTATION NAME>
C4G U7G C29A A65C

>  <READOUT KIND>
yeast fitness

>  <ENDPOINT RESULT>
≤ 0.5

$$$$
>  <MUTATION NAME>
C46A C62U A69U

>  <READOUT KIND>
yeast fitness

>  <ENDPOINT RESULT>
0.735

$$$$
